Conditions: in n-butanol, 323.15 K
measure: solubility (mole fraction)

                    structure_as_smiles  experimental_result
0  O=[N+]([O-])/N=C1\NCCN1Cc1ccc(Cl)nc1               0.0017

###

Settings: in n-butanol, 298.15 K
measure: solubility (mole fraction)

>>> print(df.to_string())
                    structure_as_smiles                     measure  experimental_result
0  O=[N+]([O-])/N=C1\NCCN1Cc1ccc(Cl)nc1  solubility (mole fraction)               0.0005

###

Conditions: in ethyl acetate, 323.15 K
measure: solubility (mole fraction)

>>> df
                    structure_as_smiles                     measure  experimental_result
0  O=[N+]([O-])/N=C1\NCCN1Cc1ccc(Cl)nc1  solubility (mole fraction)               0.0061
